tested on: IL-17A-induced G-CSF production in human normal keratinocyte (NHK); test: NHK assay: IL-17A-induced G-CSF production in normal human keratinocytes; assay type: cell-based; settings: Homo sapiens, Keratinocyte, 24 h, IL-17A 5 ng/mL, G-CSF by HTRF, average if tested more than once
observation_type: IC50

Record excerpt, results attached:
COC[C@H](c1cnn2cc([C@@H](NC(=O)c3nonc3C)C3CCC(F)(F)CC3)nc2c1)N1CC(F)(F)CNC1=O :: < 50 nM
COc1nonc1C(=O)N[C@H](c1cn2ncc([C@@H](COC3CC3)N3CC(F)(F)CNC3=O)cc2n1)C1CCC(F)(F)CC1 :: < 50 nM
Cc1nonc1C(=O)N[C@H](c1cn2ncc(C(C3CCOCC3)N3CC(F)(F)CNC3=O)cc2n1)C1CCC(F)(F)CC1 (single isomer, unassigned) :: < 50 nM
COC[C@H](c1cnn2cc([C@@H](NC(=O)c3nocc3CC(F)(F)F)C3CCC(F)(F)CC3)nc2c1)N1CC(F)(F)CNC1=O :: < 50 nM
CC(C)n1nccc1C(=O)N[C@H](c1cn2ncc(CN3CCCCNC3=O)cc2n1)C1CCC(F)(F)CC1 :: > 100 nM

GET /values?readout=IC50&item= `O=C(N[C@H](c1cn2ncc(CN3CC(F)(F)CNC3=O)cc2n1)C1CCC(F)(F)CC1)c1cnn(CC2CC2)n1`
> 100 nM

Same question, `O=C(N[C@H](c1cn2ncc(CN3CC(F)(F)C(F)(F)CNC3=O)cc2n1)C1CCC(F)(F)CC1)c1nonc1C1CC1` this time
< 50 nM

Same question, COc1nonc1C(=O)N[C@@H](CCC(C)(C)C(F)(F)F)c1cn2ncc(CN3C[C@H]4[C@@H](CNC3=O)C4(F)F)cc2n1 (relative stereo) this time
< 50 nM

Same question, `COC[C@H](c1cnn2cc([C@H](CC(C)(C)C(F)(F)F)NC(=O)c3nonc3C3CC3)nc2c1)N1CC(F)(F)CNC1=O` this time
< 50 nM

Same question, `N#CC1([C@H](c2cnn3cc([C@@H](NC(=O)c4nonc4C4CC4)C4CCC(F)(F)CC4)nc3c2)N2CC(F)(F)CNC2=O)CCC1` this time
> 100 nM

Same question, `COC[C@H](c1cnn2cc([C@@H](NC(=O)c3nonc3C)C3CCC(F)(F)CC3)nc2c1)N1CC(F)(F)C(F)(F)CNC1=O` this time
50 to 100 nM

Same question, `[2H]C1([2H])NC(=O)N([C@H](COC2CC2)c2cnn3cc([C@@H](NC(=O)c4ccnn4C(C)C)C4CCC(F)(F)CC4)nc3c2)C([2H])([2H])C1(F)F` this time
< 50 nM
